- Target or test system: Serine/threonine-protein kinase PLK1 (Homo sapiens)
- Test method notes: Plk1 polo box domain binding inhibitors, primary screen, biochemical, fluorescence polarization (AID 693)
- Condition: Plk1 PBD phosphopeptide binding, hits give high values,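 tested at about 20 µM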
The whole screen tested about 97,000 compounds, of which about 130 (0.13%) were called active. The entries come from a sample that favours actives as a whole.
Assay endpoint: inhibition (%)
# unit: % | format: bare number

Exercise: What value of inhibition has been recorded for this entry: O=C(c1ccco1)N1CCN(C(=O)C2CCCN(S(=O)(=O)c3cccc4nsnc34)C2)CC1 (stereo unspecified)
Key: -29.8

Exercise: Likewise for "O=C(CSCc1ccccc1Cl)NNC(=O)c1ccccc1" ?
Key: -5.03

Exercise: Likewise for "CC(C)OC(=O)CN1C(=O)C(=O)c2ccccc21" ?
Key: -13.6

Exercise: Likewise for "CCOC(=O)c1cc2n(c1N)-c1ccccc1C2=O" ?
Key: 45.1

Exercise: Likewise for "Cc1ccc(OC(=O)c2ccccc2C(=O)OCC(F)(F)C(F)F)cc1" ?
Key: -16.7

Exercise: Likewise for "CCCc1ccc(OCc2ccc(C(=O)N/N=C/c3cccc([N+](=O)[O-])c3)o2)c(OC)c1" ?
Key: -2.94
